target: T1, human FOLR1 recombinant protein (extracellular domain of human folate receptor alpha) (human, UniProt P15328 25-233); test: SPR dual injection on immobilized human FOLR1, 250 nM; competitor (1st VHH, saturating) A3; by the legend the value is of the 2nd VHH
T1 construct: Bought recombinant protein (Sino Biological); also called hFOLR1; FR-alpha
T1 sequence (P15328 25-233): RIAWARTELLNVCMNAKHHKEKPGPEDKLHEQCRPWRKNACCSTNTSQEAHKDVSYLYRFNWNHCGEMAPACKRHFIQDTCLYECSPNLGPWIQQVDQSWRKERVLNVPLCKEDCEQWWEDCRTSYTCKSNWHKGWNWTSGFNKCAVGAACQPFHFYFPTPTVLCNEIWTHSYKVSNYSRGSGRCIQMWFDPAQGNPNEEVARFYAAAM
For each entry below, report its loss in response level of VHH 2 relative to VHH 2 injected alone value.

His6-tagged variant of VHH A5 (VHH, Purified, unlabelled; also called A5 His6-tag) VHH: DVQLVESGGGLVQAGGSLRLSCGVSGNIFSMNLMGWYRQPPGKEREWVALITKDGSTNYEDSVKGRFTISRDNAKNTVSLQMNSLKPEDTAVYYCNAQDGSGWIRAWGWDWGQGTQVTVSS	-100%
His6-tagged variant of VHH A4 (VHH, Purified, unlabelled; also called A4 His6-tag) VHH: DVQLVESGGGLARAGGSLRLSCAASGRAFSSTYAMGWFRQAPGKEREFVADINWSEGSPMYIDSVKDRFTISRDNARNSLYLQMNSLKSEDTAVYYCAARRFGQGYEYWGQGTQVTVSS	-100%
His6-tagged variant of VHH A1 (VHH, Purified, unlabelled; also called A1 His6-tag) VHH: DVQLVESGGGLVQPGGSLRLSCAASESIFSRNHMSWYRQAPGKQRELAAIITSDGNTNYPDSVKGRFTISRDNAKNTVYLQMNSLKPEDTAVYYCNTFGRSVAGFYDYWGQGTQVTVSS	-100%

What value of loss in response level of VHH 2 relative to VHH 2 injected alone has been reported for the following binder? His6-tagged variant of VHH A2 (VHH, Purified, unlabelled; also called A2 His6-tag) VHH: DVQLVESGGGLVQAGGSLRLSCAADEMKFSNYDLAWYRRAPGKQRELAAIITSGGSTNYPDSVKGRFTISRDNAKNTVYLEMNSLKPEDTAVYYCNALRPWPQFSDYWGQGTQVTVSS
-99%
